Target: human thioredoxin (Homo sapiens)
Construct: made in house; host or cells: E. coli
Sequence (P10599 1-105): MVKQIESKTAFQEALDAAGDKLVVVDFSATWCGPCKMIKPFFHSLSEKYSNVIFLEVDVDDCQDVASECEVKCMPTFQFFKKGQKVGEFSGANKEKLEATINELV
Test: Inhibition of human thioredoxin by disulfide analogs of PX-12 (kinh/Ki)
Type: biochemical
Settings: ratio of reactivity towards Trx relative to DTT (selectivity)
Property label: Trx/DTT
Just the number, please, no unit attached.

Look over these answered cases.
>>> observed("CCC(C)SSc1nc2cc([N+](=O)[O-])ccc2s1 (stereo not drawn) [compound 16]")
175
>>> observed("CCC(C)SSc1nc2ccncc2[nH]1 (stereo not drawn) [compound 10]")
85
>>> observed("CCC(C)SSc1nc2ccccc2[nH]1 (stereo not drawn) [compound 3]")
39
>>> observed("CCC(C)SSc1nccs1 (stereo not drawn) [compound 14]")
68
>>> observed("CCC(C)SSc1nc2ccccc2o1 (stereo not drawn) [compound 12]")
392

# input What value of Trx/DTT has been reported for the following compound? CCC(C)SSc1ncc[nH]1 (stereo not drawn) [compound 1, 1-methylpropyl 2-imidazolyl disulfide]
# output 15

# input Try the compound c1ccc2[nH]c(SSC3CCCC3)nc2c1 [compound 5]
# output 74

# input Cool, now CCC(C)SSc1nc2cc([N+](=O)[O-])ccc2[nH]1 (stereo not drawn) [compound 9]
# output 362

# input Follow-up item: c1ccc2[nH]c(SSC3CCCCC3)nc2c1 [compound 7]
# output 83

# input Lookup CCC(C)SSc1nc2cccc(C)c2s1 (stereo not drawn) [compound 17]
# output 82

# input Now this one: CCC(C)SSc1nc2cc(Cl)ccc2s1 (stereo not drawn) [compound 15]
# output 88

# input // next record CC(C)SSc1nc2ccccc2[nH]1 [compound 8]
# output 72

====

molecular target: human thioredoxin (Homo sapiens); construct: made in house; host or cells: E. coli; assay: Inhibition of human thioredoxin by disulfide analogs of PX-12 (kinh/Ki); format: biochemical; conditions: human thioredoxin; bimolecular parameter estimating potency
Please use MET whenever Trx kinh/Ki is not below 3000 M⁻¹ s⁻¹, and NOT MET whenever it is.

Some entries whose results are on file:
>>> label_class("CCC(C)SSc1nc2cc(Cl)ccc2s1 (stereo not shown) [compound 15]")
"NOT MET"
>>> label_class("CCC(C)SSc1nc2ccccc2[nH]1 (stereo not shown) [compound 3]")
"MET"
>>> label_class("CCC(C)SSc1ncc[nH]1 (stereo not shown) [compound 1, 1-methylpropyl 2-imidazolyl disulfide]")
"NOT MET"
>>> label_class("CCC(C)SSc1nc2cc([N+](=O)[O-])ccc2[nH]1 (stereo not shown) [compound 9]")
"MET"
>>> label_class("c1ccc2[nH]c(SSC3CCCCC3)nc2c1 [compound 7]")
"MET"
>>> label_class("CC(C)SSc1nc2ccccc2[nH]1 [compound 8]")
"MET"
>>> label_class("CCC(C)SSc1nc2cccc(C)c2s1 (stereo not shown) [compound 17]")
"NOT MET"
>>> label_class("c1ccc2[nH]c(SSC3CCCC3)nc2c1 [compound 5]")
"MET"
>>> label_class("CCC(C)SSc1nc2ccccc2o1 (stereo not shown) [compound 12]")
"MET"
>>> label_class("CCC(C)SSc1nc2cc([N+](=O)[O-])ccc2s1 (stereo not shown) [compound 16]")
"MET"

# input Say whether CCC(C)SSc1nc2ccncc2[nH]1 (stereo not shown) [compound 10] shows Trx kinh/Ki of 3000 M⁻¹ s⁻¹ or more.
# output MET

# input Check CCC(C)SSc1nccs1 (stereo not shown) [compound 14] too.
# output NOT MET

====

tested on: TG2 activation in T84 monolayers; test: Thioredoxin-induced TG2 activation in T84 monolayers, 5BP incorporation ELISA; assay type: cell-based, human; conditions: Homo sapiens, saturating 3 μM thioredoxin, read-out: amount of PX-12 required to reduce the 5BP incorporation in half
Property label: IC50

# input // lookup IC50 for CCC(C)SSc1ncc[nH]1 (stereo not shown) [compound 1, 1-methylpropyl 2-imidazolyl disulfide]
# output 11 µM
